B1: ZNF193 (parent)
chain: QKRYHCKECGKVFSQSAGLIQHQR

Variants of: B1
Test: protein stability index of a GFP-peptide fusion (GPS, HEK-293T) (PSI 1-6); higher = more stable;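 further: lentivirally expressed fusions sorted by FACS into six bins by GFP to DsRed ratio, PSI derived from sequencing read proportions per bin multiplied by bin number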
Details: c terminus: a fixed tail appended
Parameter protein stability index: see the listing below.
Reply with just the number.

# Mutant code, protein stability index
records = [
    ("Q23H", 2.97),
    ("K11W", 2.32),
    ("Y4V", 2.25),
]

I would be grateful if you could share the reported protein stability index for `F13A` . 1.81

I would be grateful if you could share the reported protein stability index for `H22Q` . 2.1

I would be grateful if you could share the reported protein stability index for `H5I` . 3.91

I would be grateful if you could share the reported protein stability index for `Q15K` . 3.45

I would be grateful if you could share the reported protein stability index for `S16P` . 3.44

I would be grateful if you could share the reported protein stability index for `S14H` . 2.98

FYI, the data here is from the supplement of paper PMC10567573.
